# Target desc: Wee1-like protein kinase (Homo sapiens) (UniProt P30291)
# Assay details: Wee1 degradation inhibitors, primary screen, cell-based, HeLa, Wee1K328M-luciferase, luminescence (AID 1321);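 further: cells exposed to compound for 20 h before luminescence read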
# Measurement conditions: HeLa Luc-Wee1K328M stability, at 5 µM, 100% = proteasome inhibitor MG132 effect
Among all 220,000 compounds or so, about 2,600 (1.2%) were called active.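 How the source made its calls: active means activation above the mean of all tested compounds plus 3 SD, set per screening run (cut at about 8.8% in these data); inactive means the rest.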 The entries come from a sample that favours actives as a whole.
Lab note: assign the record to one of active, inactive

What was the test verdict on "C=CCOc1ccc(Cl)cc1CNCCCN1CCOCC1" ? inactive

Hi, do you know how "CCN(CC)c1ccc(NC(=O)c2ccc(Cl)nc2)cc1" came out in this test? active

Answer briefly: the call reported for "Nc1c(-c2ccc(F)cc2)cnc2ncnn12" in this assay. inactive

Identify the outcome logged in this assay for the molecule shown: CCn1c(C(C)NC(=O)c2ccc(C)cc2)n[nH]c1=S (stereo not given) inactive

Query: recorded result category for "Cc1cc(C)c2nc(NC(=O)c3ccc4c(c3)OCO4)sc2c1" in this test inactive

What did this assay record as the result for "Cc1ccc(S(=O)(=O)/N=C(/Nc2ccccn2)c2ccc(Cl)cc2)cc1" ? active

# lookup: test call for "O=C(NNc1ccccn1)c1ccc(Cl)nc1" inactive

Recorded call for CC1(C)CC(CNCCC(c2ccc(F)cc2)c2ccco2)CCO1 (stereo not given) ? inactive

What is the recorded call for this molecule in the test? "S=c1[nH]nc(-c2cccs2)n1/N=C/c1cn(-c2ccccc2)nc1-c1ccc(Cl)cc1" inactive

Short answer needed: outcome of this test for O=C(COC(=O)c1ccc(S(=O)(=O)Nc2ccccc2)cc1)NCC1CCCO1 (stereo not given) ? inactive

Which outcome was assigned to O=C(Nc1nc2ccc(S(=O)(=O)N3CCCC3)cc2s1)C1CCCO1 (stereo not given) in this test? inactive

Look up the recorded call for "CCOc1ccc(OCC)c(NC(=O)C2CCN(S(=O)(=O)c3c(C)noc3C)CC2)c1" in this test. active

Status in this test for "O=C(CSc1nc2[nH]ncc2c(=O)n1-c1ccccc1)N1CCCc2ccccc21" ? inactive

# outcome recorded in this test, key = "CCn1c2ccccc2c2cc(NC(=O)Nc3ccc([N+](=O)[O-])cc3C)ccc21" inactive

Outcome? "CCOC(=O)C1CCN(C(=O)C2CCN(S(=O)(=O)c3c(C)noc3C)CC2)CC1" inactive

Lab log entry: "COC(=O)c1sc(SC)c(S(=O)(=O)C(C)C)c1N/N=C(\C#N)S(=O)(=O)c1ccccn1" — outcome as called in the assay? inactive

Entry Cc1nnc(SCC(=O)N2c3ccccc3C(C)(c3ccc(Cl)cc3)CC2(C)C)s1 (stereo not given) : call = ? active

Call for entry COc1ccc(NC(=O)/C(Cl)=C(/Cl)S(=O)Cc2ccc(C)cc2)cn1 (stereo not given) : active

What did this assay record as the result for "COc1ccc(Cc2cc(-c3ccc(F)cc3)n[nH]c2=O)cc1" ? inactive

I would be grateful if you could indicate the recorded call for "CC(=O)Nc1ccc(NC(=S)NC(=O)/C=C/c2ccccc2)cc1" . inactive

I'd appreciate the recorded outcome for "COc1ccc(Nc2cc(Cl)ccc2C(=O)O)cn1" from this test. inactive

Assay outcome for "O=S(=O)(Nc1ccc(Cl)cn1)c1cnc(Cl)c(Br)c1" : what was it? inactive

Please indicate how the test categorized "O=C(Nc1ccc(S(=O)(=O)Nc2nccs2)cc1)c1cccc(S(=O)(=O)N2CCOCC2)c1" . inactive

Called result for "CC1(C)CN(c2ccc(-c3ccnc4ncnn34)cc2)C1=O" active

What did this assay record as the result for "Cc1ccc(S/C(=N\S(=O)(=O)c2ccc(Cl)cc2)c2ccccc2)cc1" ? inactive

Recorded test call requested for "Cc1nnc(SCC(=O)N2CCc3ccccc32)n1-c1ccccc1" inactive

For CCOc1ccc(N2C(=O)CC(N(CCc3ccc(OC)c(OC)c3)C(=S)Nc3ccccc3)C2=O)cc1 (stereo not given) , what call appears in the results of this test? active

Please state the recorded outcome for this molecule: "COc1ccc(NC(=S)NCCNC(C)=O)cc1" inactive

# lookup: test call for "C=CCSc1nc(N)cc(=O)[nH]1" inactive

Called result for "O=[N+]([O-])c1ccc(N2CCSCC2)cc1O" inactive

Fill in: this test's call for "NS(=O)(=O)c1ccc(NC(=O)COC(=O)c2ccc(Cl)nc2)cc1" is ___ inactive

I'd appreciate the recorded outcome for CC1(c2ccccc2)CC(C)(C)N(C(=O)c2cc([N+](=O)[O-])cc([N+](=O)[O-])c2)c2ccccc21 (stereo not given) from this test. inactive

Test call, this molecule: CCOc1ccc(N2C(=O)CC(N(O)c3ccccc3)C2=O)cc1 (stereo not given) inactive

Recorded test outcome, item "CCOc1ccccc1C1C(C(=O)OC)=CN(C)C=C1C(=O)OC" inactive

Name the outcome recorded for "Cn1c(CSCC(=O)Nc2ccccc2)nnc1SCc1ccccc1" in the assay. inactive

Hello, I am checking results. What call was entered for Cc1cc(C)c2nc(NC(=O)C3CCCO3)sc2c1 (stereo not given) ? active

Recorded call for "CCOc1ccccc1NC(=O)C1CCN(S(=O)(=O)c2c(C)nn(C)c2C)CC1" ? inactive

Returns: the outcome recorded for "COc1ccc(-c2ccc(CNCCCN3CCOCC3)o2)cc1Cl" in this assay. active

Kindly provide the recorded test outcome for the following molecule: "O=S(=O)(c1ccccc1)N1CN(Cc2ccc(F)cc2)c2nc3ccccc3nc21" inactive

How did this test come out for "COC(=O)c1sc(NC(=S)NC(=O)c2ccc(C)cc2)nc1C" ? inactive

How did this test come out for CCOc1ccc(CNC(=O)C2CCC(=O)N2C2CCCC2)cc1OC (stereo not given) ? inactive

# lookup: test call for "Cc1ccc(NC(=S)NC(=O)/C=C/c2ccc(Cl)cc2)cc1" inactive

What classification did "O=S(=O)(/N=C(/Nc1ccccn1)c1ccccc1)c1ccc(Cl)cc1" end up with in this test? inactive

What classification did "Cc1nnc(SCC(=O)N2CCc3ccccc3C2)s1" end up with in this test? inactive

Dear colleague, could you share the recorded outcome for O=C1C2C3C=CC(C3)C2C(=O)N1c1ccc(S(=O)(=O)Nc2nccs2)cc1 (stereo not given) when you have a moment? inactive
